Exercise: state measured viability at 1000 µM for each of the molecules provided.
experiment: Cytotoxicity against bovine articular chondrocytes assessed as cell viability at 1 mM by MTT assay relative to control
Design: species or system Bos taurus
condition-details: cattle, read-out: Activity
Just the number please, in %, no unit attached.

response.value for CCC(C)OC(=O)[C@@H]1CCCN1P(=O)(Oc1ccc(OC)cc1)O[C@H]1[C@H](O)[C@@H](CO)O[C@H](O)[C@@H]1NC(C)=O (stereo not given in full) (field: viability at 1000 µM) = 7

response.value for COc1ccc(OP(=O)(O[C@H]2[C@H](O)[C@@H](CO)O[C@H](O)[C@@H]2NC(C)=O)N2CCC[C@H]2C(=O)OC(C)(C)C)cc1 (stereo not given in full) (field: viability at 1000 µM) = 5

response.value for N[C@H]1C(O)O[C@H](CO)[C@@H](O)[C@@H]1O (stereo not given in full) (field: viability at 1000 µM) = 88

response.value for CC(=O)N[C@@H]1[C@@H](O)[C@H](O)[C@@H](CO)O[C@H]1O (field: viability at 1000 µM) = 70

response.value for CCOC(=O)CN(C)P(=O)(Oc1ccc(OC)cc1)O[C@H]1[C@H](O)[C@@H](CO)O[C@H](O)[C@@H]1NC(C)=O (stereo not given in full) (field: viability at 1000 µM) = 80
